Numbers sourced from the supplement of paper PMC10567573.

B1: SNX8 (parent)
chain: LHQETQLIHVYLPLTSHILRAFVN

variants of: B1; test: protein stability index of a GFP-peptide fusion (GPS, HEK-293T) (PSI 1-6); higher = more stable; details: c terminus: a fixed tail appended;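 further: lentivirally expressed fusions sorted by FACS into six bins by GFP to DsRed ratio, PSI derived from sequencing read proportions per bin multiplied by bin number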
Entry flag: class 1 if protein stability index reaches 2; class 0 if it does not.

Please review the entries below; each comes with its answer.
1. LHQETQLIHVYVPLTSHILRAFVN [L12V] : class 0
2. LHQVTQLIHVYLPLTSHILRAFVN [E4V] : class 1
3. LHQETQLIHQYLPLTSHILRAFVN [V10Q] : class 0
4. LHQETQLIHVYGPLTSHILRAFVN [L12G] : class 1
5. LHAETQLIHVYLPLTSHILRAFVN [Q3A] : class 1
6. LHQETQLIHVYLPLTSHALRAFVN [I18A] : class 0

Exam item: decide whether the reported protein stability index for LHQETQLIHVYLPLHSHILRAFVN [T15H] is at least 2.
class 1

Entry LHQETQLIHVYLPLTSHILRAFLN [V23L] : is its protein stability index no less than 2?
class 1

Is the recorded value of protein stability index equal to or greater than 2 for this variant? LHQETQLFHVYLPLTSHILRAFVN [I8F]
class 1

Form field: protein stability index at least 2? Entry: LHQETQLIHVSLPLTSHILRAFVN [Y11S]
class 0

Is the recorded value of protein stability index equal to or greater than 2 for this variant? LHYETQLIHVYLPLTSHILRAFVN [Q3Y]
class 1
